- System: T1, monkey GPC3 on HEK293T-monkey GPC3 cells (monkey)
- T1 construct: whole, on cells
- Measurement Description: FACS on HEK293T-monkey GPC3 cells;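 also: flow cytometry binding of test antibodies to the cells, read as mean fluorescence intensity, with half-maximal concentration taken from fitted curves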
Below, each entry is listed with its recorded Max MFI.
Answer format: number, then unit.

Past entries and their recorded results:
Binder	Max MFI
F4.18.4 (antibody, human IgG1, kappa, V domains shown, Human-murine chimeric antibody) VH: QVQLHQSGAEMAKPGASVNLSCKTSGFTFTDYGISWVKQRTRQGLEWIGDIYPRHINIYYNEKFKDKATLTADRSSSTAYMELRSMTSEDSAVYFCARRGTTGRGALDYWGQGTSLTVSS VL: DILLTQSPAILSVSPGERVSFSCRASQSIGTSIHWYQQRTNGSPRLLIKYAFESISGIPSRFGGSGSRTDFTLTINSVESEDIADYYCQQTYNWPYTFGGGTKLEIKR	52600 MFI
F1.42.8 (antibody, human IgG1, kappa, V domains shown, Human-murine chimeric antibody) VH: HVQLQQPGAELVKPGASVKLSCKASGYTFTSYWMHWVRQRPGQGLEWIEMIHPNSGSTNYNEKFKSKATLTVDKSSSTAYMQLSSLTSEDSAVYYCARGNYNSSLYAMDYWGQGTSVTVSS VL: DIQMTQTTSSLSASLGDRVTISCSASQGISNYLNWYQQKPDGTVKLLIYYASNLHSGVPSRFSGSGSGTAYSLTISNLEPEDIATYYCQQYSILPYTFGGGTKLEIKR	7620 MFI
F2.55.11 (antibody, human IgG1, kappa, V domains shown, Human-murine chimeric antibody) VH: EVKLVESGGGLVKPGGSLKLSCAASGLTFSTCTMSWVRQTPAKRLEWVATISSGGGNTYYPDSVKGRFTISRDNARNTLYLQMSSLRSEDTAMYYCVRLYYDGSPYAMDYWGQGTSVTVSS VL: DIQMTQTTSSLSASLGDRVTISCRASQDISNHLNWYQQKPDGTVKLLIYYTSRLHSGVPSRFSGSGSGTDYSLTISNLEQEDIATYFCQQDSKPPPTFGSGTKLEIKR	3530 MFI
F3.38.7 (antibody, human IgG1, kappa, V domains shown, Human-murine chimeric antibody) VH: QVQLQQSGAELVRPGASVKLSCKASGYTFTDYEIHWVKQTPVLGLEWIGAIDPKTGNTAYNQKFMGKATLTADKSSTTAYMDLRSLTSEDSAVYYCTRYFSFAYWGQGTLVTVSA VL: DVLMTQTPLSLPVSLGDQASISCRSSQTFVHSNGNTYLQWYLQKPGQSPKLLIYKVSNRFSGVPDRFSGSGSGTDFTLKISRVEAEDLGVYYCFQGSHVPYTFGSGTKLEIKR	110000 MFI

Kindly review the next binder as well.
## Input Determine its reported Max MFI: F1.120.16 (antibody, human IgG1, kappa, V domains shown, Human-murine chimeric antibody) VH: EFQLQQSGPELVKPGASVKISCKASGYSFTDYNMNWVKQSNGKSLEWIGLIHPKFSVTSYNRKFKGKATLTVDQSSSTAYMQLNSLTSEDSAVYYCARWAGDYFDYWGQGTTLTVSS VL: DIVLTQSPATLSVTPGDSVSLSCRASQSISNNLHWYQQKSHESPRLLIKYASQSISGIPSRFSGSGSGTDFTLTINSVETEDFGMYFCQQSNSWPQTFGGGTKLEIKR
## Output 5540 MFI
